Ref: patent US20180057604A1

- target of assay: His-tagged BACE1 protein (Example 15) (Homo sapiens (Human), UniProt P56817 22-457)
- Sequence (P56817 22-457 limits assumed): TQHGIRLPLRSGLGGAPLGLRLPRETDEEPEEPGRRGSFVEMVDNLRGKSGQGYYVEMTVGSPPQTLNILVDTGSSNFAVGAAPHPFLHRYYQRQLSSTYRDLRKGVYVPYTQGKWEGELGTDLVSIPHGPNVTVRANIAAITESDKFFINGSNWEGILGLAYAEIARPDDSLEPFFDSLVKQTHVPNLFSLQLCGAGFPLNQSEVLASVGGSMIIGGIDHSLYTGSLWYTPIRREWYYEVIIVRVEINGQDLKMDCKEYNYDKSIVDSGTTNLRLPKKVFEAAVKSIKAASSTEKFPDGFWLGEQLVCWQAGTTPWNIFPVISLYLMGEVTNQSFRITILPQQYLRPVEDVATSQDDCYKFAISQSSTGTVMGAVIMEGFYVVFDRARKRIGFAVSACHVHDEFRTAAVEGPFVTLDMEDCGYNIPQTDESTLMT
- experiment summary: SPR (Biacore T200), Fab on captured His-BACE1;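 note: Single-cycle kinetics with serially diluted Fab flowed over BACE1 captured by anti-His antibody on a CM5 chip, rates fitted to a one-to-one Langmuir model, Kd derived as koff over kon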
endpoint name: kon (M⁻¹ s⁻¹)
Your answer is read as M⁻¹ s⁻¹, so omit the unit and give the number.

Note kon for the binder shown: 6266.2 Fab (Fab, V domains shown) VH: QVQLVQSGAEVKKPGSSVKVSCKASGGTLSHYGVSWVRQAPGQGLEWMGNIIPGIGTANYAQKFQGRVTITADESTSTAYMELSSLRSEDTAVYYCARSGGTKYGMLDVWGQGTMVTVSS VL: EIVMTQSPATLSVSPGERATLSCRASQSVSSNLAWYQQKPGQAPRLLIYGASKRATGIPARFSGSGSGTEFTLTISSLQSEDAAVYYCQQLILWPPRTFGGGTKVEIK
245000

Note kon for the binder shown: 6266.5 Fab (Fab, V domains shown) VH: QVQLVQSGAEVKKPGSSVKVSCKASGGTLSHYGVSWVRQAPGQGLEWMGNIIPGIGTANYAQKFQGRVTITADESTSTAYMELSSLRSEDTAVYYCARSGGTQYGMLDVWGQGTMVTVSS VL: EIVMTQSPATLSVSPGERATLSCRASQSVSSNLAWYQQKPGQAPRLLIYGASKRATGIPARFSGSGSGTEFTLTISSLQSEDAAVYYCQQLILWPPRTFGGGTKVEIK
428000

Note kon for the binder shown: 6266.12 Fab (Fab, V domains shown) VH: QVQLVQSGAEVKKPGSSVKVSCKASGGTLNGYGVSWVRQAPGQGLEWMGNIIPGFGTANYAQKFQGRVTITADESTSTAYMELSSLRSEDTAVYYCARSGGTKYGMLDVWGQGTMVTVSS VL: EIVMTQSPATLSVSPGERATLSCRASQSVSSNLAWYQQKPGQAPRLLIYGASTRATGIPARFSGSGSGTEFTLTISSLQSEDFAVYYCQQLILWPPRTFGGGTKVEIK
854000
